- Tgt: UniProt:P08686
- Sequence (P08686 whole entry): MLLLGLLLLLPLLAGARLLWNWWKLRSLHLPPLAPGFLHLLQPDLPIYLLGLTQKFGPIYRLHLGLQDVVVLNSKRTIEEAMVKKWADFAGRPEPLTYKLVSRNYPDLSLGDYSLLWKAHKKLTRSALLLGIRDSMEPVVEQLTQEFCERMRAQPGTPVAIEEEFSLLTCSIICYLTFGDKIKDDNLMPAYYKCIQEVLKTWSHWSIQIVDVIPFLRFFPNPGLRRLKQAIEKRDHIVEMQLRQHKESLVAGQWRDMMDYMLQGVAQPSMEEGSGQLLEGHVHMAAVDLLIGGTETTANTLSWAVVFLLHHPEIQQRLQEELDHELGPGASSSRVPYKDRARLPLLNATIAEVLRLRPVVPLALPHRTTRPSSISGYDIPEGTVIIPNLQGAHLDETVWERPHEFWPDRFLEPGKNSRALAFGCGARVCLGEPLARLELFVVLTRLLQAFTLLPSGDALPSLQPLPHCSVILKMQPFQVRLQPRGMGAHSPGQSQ
- Sequence (P16435 2-677 partner): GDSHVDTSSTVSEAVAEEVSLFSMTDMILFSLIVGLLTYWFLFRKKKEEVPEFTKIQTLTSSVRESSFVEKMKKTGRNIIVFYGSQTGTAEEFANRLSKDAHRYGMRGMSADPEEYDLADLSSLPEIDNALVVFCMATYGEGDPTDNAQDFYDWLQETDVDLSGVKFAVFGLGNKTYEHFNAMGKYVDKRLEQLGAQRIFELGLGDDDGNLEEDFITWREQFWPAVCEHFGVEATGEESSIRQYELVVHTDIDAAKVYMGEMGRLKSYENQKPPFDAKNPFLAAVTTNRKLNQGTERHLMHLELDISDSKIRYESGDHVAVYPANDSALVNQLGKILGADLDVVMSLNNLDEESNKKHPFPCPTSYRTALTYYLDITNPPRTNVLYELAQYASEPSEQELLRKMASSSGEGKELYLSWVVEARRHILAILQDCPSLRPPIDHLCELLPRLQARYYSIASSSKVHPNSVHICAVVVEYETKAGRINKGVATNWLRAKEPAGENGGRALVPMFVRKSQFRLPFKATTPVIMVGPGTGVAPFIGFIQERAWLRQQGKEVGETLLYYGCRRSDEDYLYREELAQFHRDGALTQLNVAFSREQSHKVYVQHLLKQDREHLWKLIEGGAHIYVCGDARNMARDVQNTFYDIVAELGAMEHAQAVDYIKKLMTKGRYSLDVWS
- Assay method text: cell-free activity assay, microsomes of transfected COS-1 cells, progesterone to 11-DOC
- Assay type: biochemical
pIC50: −log10 of the molar value.
Observable: pIC50

Compound structure string: O[C@@](Cn1cnnn1)(c1ccc(F)cc1F)C(F)(F)c1ccc(-c2ccc(OCC(F)(F)F)cc2)cn1
Measurement: 4.86
